assay: GFP drop in mixed WT/humanized-ribosome E. coli culture – GFP/RFP fluorescence, OD600, single point, bacterial rRNA inhibitor project, primary screen (AID 720706); conditions: E. coli WT GFP vs humanized-ribosome RFP mutants, 24 h; measured here: OD600 growth, DMSO median 0, no signal -100
Among all 350,000 compounds or so, about 5,500 (1.6%) were called active. The list comes from a sample in which actives are over-represented; it also holds close analogues and randomly drawn compounds.
quantity_measured: OD600 change (%)
Enter your answer as a number in %; do not include the unit.

Some compounds with known OD600 change results, for comparison:
Value of measured OD600 change for the entry "CCNC(=O)[C@H]1[C@H](CO)[C@H]2Cn3c(cccc3=O)[C@@H]1N2Cc1cc(F)ccc1F" : 3.74

Value of measured OD600 change for the entry "CCc1ccc(C2=CC(=O)CC(C)(C)C2=O)cc1" : 6.63

Value of measured OD600 change for the entry "CCN1C(=O)/C(=C2\SC(N3CCCCC3)=NC2=O)c2ccccc21" : 0.66

Value of measured OD600 change for the entry "CC(C)NC(=O)Nc1ccc2c(c1)CC(=O)N(C)C[C@@H](C)[C@@H](CN(C)C(=O)OC(C)(C)C)O2" : 4.01

Further cases:
Value of measured OD600 change for the entry "Cc1ccc(NC(=O)N2CCC(c3nc4c(nnn4Cc4c(F)cccc4Cl)c(=O)[nH]3)CC2)cc1" : -18.6

Value of measured OD600 change for the entry "O=C1Oc2ccccc2C(=O)/C1=C/c1ccccc1O" : -16.1

Value of measured OD600 change for the entry O=C(Nc1ccc(F)cc1)N1CCCC(c2nc3c(nnn3Cc3ccccc3Cl)c(=O)[nH]2)C1 (centres undefined) : 16.4

Value of measured OD600 change for the entry "CCOC(=O)N1CCN(C(=O)c2ccccc2N(Cc2ccccc2)S(=O)(=O)c2ccc(OC)cc2)CC1" : -20.1

Value of measured OD600 change for the entry "NC(=O)c1ccccc1N(Cc1ccccc1)S(=O)(=O)c1ccccc1" : -16.6

---

Recorded measurements of RFP signal change, one per entry
assay: GFP drop in mixed WT/humanized-ribosome E. coli culture – GFP/RFP fluorescence, OD600, single point, bacterial rRNA inhibitor project, primary screen (AID 720706); conditions: E. coli WT GFP vs humanized-ribosome RFP mutants, 24 h; measured here: RFP humanized mutant strains, DMSO median 0, no signal -100, concentration not given here
In all, about 350,000 compounds went through this assay and about 5,500 (1.6%) were called active. This excerpt belongs to a sample that is enriched for actives.
Enter your answer as a number in %; do not include the unit.

Value of measured RFP signal change for the entry "COc1ccc(-c2cc(C(=O)N3CCN(Cc4ccc5c(c4)OCO5)CC3)on2)cc1OC" : 4.69

Further cases:
Value of measured RFP signal change for the entry "NN=C(NN=Cc1ccccc1)c1ccccc1" : -0.189

Value of measured RFP signal change for the entry "CO[C@H]1CC[C@@H]2CCOc3c(C#N)cccc3C(=O)N(C)C[C@H](C)C(=O)N(C)C[C@H]1O2" : -1.65

Value of measured RFP signal change for the entry "O=[N+]([O-])c1ccc(N2CCN(c3ccc(O)cc3)CC2)c(Cl)c1" : 1.58

---

assay: GFP drop in mixed WT/humanized-ribosome E. coli culture – GFP/RFP fluorescence, OD600, single point, bacterial rRNA inhibitor project, primary screen (AID 720706); conditions: E. coli WT GFP vs humanized-ribosome RFP mutants, 24 h; measured here: RFP humanized mutant strains, DMSO median 0, no signal -100, concentration not given here
Out of some 350,000 compounds screened, about 5,500 (1.6%) were called active. This excerpt belongs to a sample that is enriched for actives.
quantity_measured: RFP signal change (%)
Enter your answer as a number in %; do not include the unit.

Value of measured RFP signal change for the entry "Cc1noc(C)c1S(=O)(=O)N(C)C[C@H]1OCCCC[C@H](C)Oc2ccc(NC(=O)c3ccccc3)cc2C(=O)N([C@@H](C)CO)C[C@H]1C" : 2.4

Value of measured RFP signal change for the entry "COc1ccc2c3c(n(C)c2c1)[C@@H](CO)N(Cc1ccccc1OC)CC31CN(CC2CCOCC2)C1" : -0.161

Value of measured RFP signal change for the entry "COc1ccc(S(=O)(=O)N(C)C[C@@H]2Oc3ccc(NC(=O)CCC(F)(F)F)cc3C(=O)N([C@@H](C)CO)C[C@@H]2C)cc1" : -0.798

Value of measured RFP signal change for the entry "CCC(=O)N[C@H]1CC[C@@H](CC(=O)NCC2CC2)O[C@@H]1CO" : 3.11

Value of measured RFP signal change for the entry "C/C=C/c1ccc([C@H]2[C@@H](CO)N(C(=O)Cc3ccncc3)[C@@H]2CNC(C)=O)cc1" : -0.347

Value of measured RFP signal change for the entry "CC(C)NC(=O)N[C@@H]1CC[C@H](CC(=O)NC2Cc3ccccc3C2)O[C@H]1CO" : -1.63

Value of measured RFP signal change for the entry "O=c1[nH]c(CSc2ccccc2)nc2c1oc1ccccc12" : -8.61

Value of measured RFP signal change for the entry "OC[C@@H]1[C@@H](c2ccccc2)C2(CN(Cc3cccc(F)c3)C2)N1CC1CCCC1" : 20.6

Value of measured RFP signal change for the entry "C[C@H]1CN([C@@H](C)CO)C(=O)c2cc(C3=CCCC3)cnc2O[C@H]1CN(C)C(=O)Nc1ccc(F)cc1" : -0.613

Value of measured RFP signal change for the entry "C[C@@H](Nc1nc(-c2ccccc2)nc2c1oc1ccccc12)C(=O)O" : 7.03

Value of measured RFP signal change for the entry "CN1CCN(C(=O)C[C@H]2CC[C@@H]3[C@H](COC[C@@H](O)CN3CC3CCCC3)O2)CC1" : -2.61

Value of measured RFP signal change for the entry "C[C@@H](C(=O)N(C)C[C@H]1OCc2ccccc2-c2c(n(C)c3ccccc23)C(=O)N([C@@H](C)CO)C[C@@H]1C)c1ccccc1" : 3.17

Value of measured RFP signal change for the entry "Cc1nnc(SCc2ccc(C(=O)c3ccc(Cl)cc3)o2)n1-c1ccccc1" : 3.57

Value of measured RFP signal change for the entry "C[C@@H]1CN([C@H](C)CO)C(=O)c2cc(-c3cccc(F)c3)cnc2O[C@@H]1CN(C)C" : -2.92

Value of measured RFP signal change for the entry "COC(=O)c1ccc(CSc2nc3ccccc3c(=O)n2-c2cccc(OC)c2)o1" : 0.461

Value of measured RFP signal change for the entry "Cc1nnc(SCC(=O)Nc2cccc(N)c2)n1-c1ccccc1" : 4.46

Value of measured RFP signal change for the entry "COC(=O)C1=CN(Cc2ccc(OC)c(OC)c2)C=C(C(=O)OC)C1c1cccs1" : 6.91

Value of measured RFP signal change for the entry "CCC(=O)N1CC2(CN(C(=O)Nc3ccccc3F)C2)c2c([nH]c3cc(OC)ccc23)[C@H]1CO" : 1.22
